- protocolSummary: PK comparison QD, BID, TID oral dosing
- Type: in vivo
- conditionDescription: male, CD-1, mouse, plasma, po, 0.3 g/kg, PO 0.3 g/kg QD
readoutLabel: Cmax (ng/mL)
Give the number; ng/mL is assumed, so skip it.

Query: Please report the measured Cmax for `OC[C@@H](O)[C@@H](O)[C@@H](O)CO`
Reply: 34200

* * *

- protocolSummary: 7-day repeat-dose oral toxicokinetics
- Type: in vivo, CD-1 mouse
- conditionDescription: female, CD-1, mouse, plasma, po, 1.5 g/kg, 1.5 g/kg/dose BID, Day 1, F; read-out: AUC0-24
readoutLabel: AUC(0-t) (µg·h/mL)
Please respond with the number in µg·h/mL and leave the unit unwritten.

Query: Note AUC(0-t) for the molecule shown: `OC[C@@H](O)[C@@H](O)[C@@H](O)CO`
Reply: 504

* * *

- protocolSummary: Metabolic stability in liver microsomes, cytosol, hepatocytes
- Type: in vitro ADME
- conditionDescription: Sprague-Dawley, rat, liver cytosol, Cytosol
- Method: Metabolic stability of ribitol was conducted in liver microsomes, cytosol, and primary hepatocytes, from CD-1 mouse, Sprague-Dawley rat, Gottingen minipig, and human at a concentration of ribitol of 10 μM.
readoutLabel: half-life at 10 μM

Query: Quote half-life at 10 μM reported for OC[C@@H](O)[C@@H](O)[C@@H](O)CO [ribitol, (2R,3s,4S)-Pentane-1,2,3,4,5-pentol] please.
Reply: 4.3 h

* * *

- protocolSummary: PK comparison QD, BID, TID oral dosing
- Format: in vivo
- conditionDescription: female, CD-1, mouse, plasma, po, 0.3 g/kg, PO 0.3 g/kg/dose TID, last dose
readoutLabel: Cmax

Query: State its Cmax for this molecule: `OC[C@@H](O)[C@@H](O)[C@@H](O)CO`
Reply: 43900 ng/mL

* * *

- protocolSummary: 7-day repeat-dose oral toxicokinetics
- Format: in vivo, CD-1 mouse
- conditionDescription: female, CD-1, mouse, plasma, po, 1 g/kg, 1.0 g/kg/dose BID, Day 1, F
readoutLabel: Tmax (h)
Record the value in h, omitting the unit from your answer.

Query: Please give measured Tmax of the following entry: `OC[C@@H](O)[C@@H](O)[C@@H](O)CO`
Reply: 6.5

* * *

- protocolSummary: Single oral dose PK
- Type: in vivo, CD-1 mouse
- conditionDescription: CD-1, mouse, plasma; single PO 0.3 g/kg, male; read-out: % F
readoutLabel: bioavailability (%)
Enter your answer as a number in %; do not include the unit.

Query: Tell me measured bioavailability for OC[C@@H](O)[C@@H](O)[C@@H](O)CO [ribitol, (2R,3s,4S)-Pentane-1,2,3,4,5-pentol] please.
Reply: 24.6

* * *

- protocolSummary: 7-day repeat-dose oral toxicokinetics
- Assay type: in vivo, Bama minipig
- conditionDescription: female, Bama, minipig, plasma, po, 0.1 g/kg, 0.1 g/kg BID, Day 1, F
readoutLabel: Tmax
Could you write the number and then its unit?

Query: Read the entry OC[C@@H](O)[C@@H](O)[C@@H](O)CO [ribitol, (2R,3s,4S)-Pentane-1,2,3,4,5-pentol] and write its reported Tmax.
Reply: 3.8 h

* * *

- protocolSummary: Single intravenous dose PK
- Type: in vivo, CD-1 mouse
- conditionDescription: CD-1, mouse, plasma; IV 100 mg/kg, male; read-out: Vss
readoutLabel: Vd (L/kg)
Kindly answer with a numeric value in L/kg, unit omitted.

Query: Recall and state the measured Vd for `OC[C@@H](O)[C@@H](O)[C@@H](O)CO` .
Reply: 2.01

Taken from patent US20230364118A1.
